# target desc: Acetylcholinesterase (Electrophorus electricus, UniProt O42275)
# Sequence (O42275 whole entry): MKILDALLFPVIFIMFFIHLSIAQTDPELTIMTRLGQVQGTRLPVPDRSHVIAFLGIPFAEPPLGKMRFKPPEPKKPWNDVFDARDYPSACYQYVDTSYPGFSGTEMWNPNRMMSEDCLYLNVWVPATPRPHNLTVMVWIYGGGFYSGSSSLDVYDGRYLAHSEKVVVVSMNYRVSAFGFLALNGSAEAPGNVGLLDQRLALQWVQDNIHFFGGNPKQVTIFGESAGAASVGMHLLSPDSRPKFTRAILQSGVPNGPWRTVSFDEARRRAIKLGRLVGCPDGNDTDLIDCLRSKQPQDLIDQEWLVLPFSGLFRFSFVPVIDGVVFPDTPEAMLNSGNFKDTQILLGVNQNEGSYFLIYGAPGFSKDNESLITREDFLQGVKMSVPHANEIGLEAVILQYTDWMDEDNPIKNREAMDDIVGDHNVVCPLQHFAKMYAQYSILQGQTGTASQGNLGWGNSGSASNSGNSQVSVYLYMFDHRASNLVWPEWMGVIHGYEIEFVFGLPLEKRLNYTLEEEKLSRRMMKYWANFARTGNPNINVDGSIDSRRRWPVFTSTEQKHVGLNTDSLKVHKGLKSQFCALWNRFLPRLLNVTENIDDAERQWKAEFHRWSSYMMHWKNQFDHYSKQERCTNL
# assay explanation: Inhibition of Electrophorus electricus AChE using acetylthiocholine iodide as substrate preincubated for 20mins before the addition of substrate by Ellman's method
# test settings: read-out: Ki
experimental endpoint: Ki

Use the examples below as a reference point.
compound	Ki
CCCCCCOC(=O)[C@]12CCC(C)(C)C[C@H]1C1=CC[C@@H]3[C@@]4(C)C[C@@H](O)[C@H](O)C(C)(C)[C@@H]4CC[C@@]3(C)[C@]1(C)CC2	4.78 µM
CC1(C)CC[C@]2(C(=O)OCCC#CCl)CC[C@]3(C)C(=CC[C@@H]4[C@@]5(C)C[C@@H](O)[C@H](O)C(C)(C)[C@@H]5CC[C@]43C)[C@@H]2C1	5.71 µM
C=CCNC(=O)[C@]12CCC(C)(C)C[C@H]1C1=CC[C@@H]3[C@@]4(C)C[C@@H](O)[C@H](O)C(C)(C)[C@@H]4CC[C@@]3(C)[C@]1(C)CC2	> 20 µM
C=CCOC(=O)[C@]12CCC(C)(C)C[C@H]1C1=CC[C@@H]3[C@@]4(C)C[C@@H](O)[C@H](O)C(C)(C)[C@@H]4CC[C@@]3(C)[C@]1(C)CC2	> 30 µM
CC1(C)CC[C@@]2(C(=O)OCc3ccc([N+](=O)[O-])cc3)CC[C@@]3(C)C(=CC[C@H]4[C@]5(C)C[C@H](O)[C@@H](O)C(C)(C)[C@H]5CC[C@@]43C)[C@H]2C1 (single isomer, unassigned)	6.14 µM

Alright, here's another compound for you.
**Q:** Quick one: Ki of "CC(=O)O[C@@H]1C[C@]2(C)[C@H]3CC=C4[C@@H]5CC(C)(C)CC[C@]5(C(=O)NCc5ccccc5)CC[C@@]4(C)[C@]3(C)CC[C@H]2C(C)(C)[C@H]1OC(C)=O" ?
**A:** 16.2 µM

Reference source for all entries: ChEMBL document CHEMBL3779826
